- Tested on: S. aureus ATCC 29213
Quantity Name: MIC (µg/mL)
Give bare numbers, in µg/mL.

Consider the following illustrative entries.
COC(=O)c1sc2c(c1O)c(=O)c1cc(F)c(N3CCNCC3)c(OC)c1n2C1CC1; 3
COc1c(N2C[C@@H]3CCCN[C@@H]3C2)ccc2c(=O)c3c(O)c(C#N)sc3n(C3CC3)c12; 0.5
COc1c(N2CC[C@H](N)C2)c(F)cc2c(=O)c3c(O)c(C#N)[nH]c3n(C3CC3)c12; 64
COc1c(-c2ccnc(C)c2)c(F)cc2c(=O)c3c(O)c(C#N)sc3n(C3CC3)c12; 0.02

Continue with the molecule presented below.
[Q] Would you mind telling me what MIC value was observed for COc1c(N2CCCC(CN)C2)c(F)cc2c(=O)c3c(O)c(C(C)=O)sc3n(C3CC3)c12 (centres unmarked) ?
[A] 0.13

* * *

The compounds below have reported MIC for S. aureus ATCC 29213.
Numbers only, in µg/mL.

Consider the following illustrative entries.
COc1c(N2CC[C@@H](C(C)(C)N)C2)ccc2c(=O)c3c(O)c(C#N)sc3n(C3CC3)c12; 0.06
COc1c(N2CCNCC2)c(F)cc2c(=O)c3c(O)c(S(=O)(=O)c4ccccc4)sc3n(C3CC3)c12; 1
COc1c(N2CC(O)C2)c(F)cc2c(=O)c3c(O)c(C#N)sc3n(C3CC3)c12; 0.06
COc1c(N2CCNCC2)ccc2c(=O)c3c(O)c(C#N)sc3n(C3CC3)c12; 0.25
COc1c(N2CC[C@@H](CN)C2)c(F)cc2c(=O)c3c(O)c(C(C)=O)sc3n(C3CC3)c12; 0.06

Here are 3 compounds. What values of MIC were reported for them?
1. COc1c(N2CCN(CC#N)CC2)c(F)cc2c(=O)c3c(O)c(C#N)sc3n(C3CC3)c12
2. COc1c(N2CCNCC2)c(F)cc2c(=O)c3c(O)c(C#N)sc3n(C3CC3)c12
3. COc1c(N2CC[C@@H](c3ncn[nH]3)C2)c(F)cc2c(=O)c3c(n(C4CC4)c12)SC(C#N)C3=O (some centres unmarked)

[A]
1. 0.06
2. 0.06
3. 0.02

* * *

- Test system: S. aureus ATCC 29213
Could you please mark TRUE for values of MIC below 0.06 µg/mL and FALSE for values at or above it?

COc1c(N2CCN(C)CC2)c(F)cc2c(=O)c3c(O)c(C#N)sc3n(C3CC3)c12; FALSE

[Q] I wonder whether COc1c(N2CC[C@@H](C(C)(C)N)C2)c(F)cc2c(=O)c3c(O)c(C#N)sc3n(C3CC3)c12 has MIC below 0.06 µg/mL. Can you tell?
[A] TRUE

[Q] I wonder whether COc1c(N2CCNCC2)c(F)cc2c(=O)c3c(O)c(C(N)=O)sc3n(C3CC3)c12 has MIC below 0.06 µg/mL. Can you tell?
[A] FALSE

[Q] I wonder whether N#Cc1sc2c(c1O)c(=O)c1cc(F)c(N3CCNCC3)cc1n2C1CC1 has MIC below 0.06 µg/mL. Can you tell?
[A] FALSE

* * *

- Tested on: S. aureus ATCC 29213
Quantity Name: MIC
State the value, then name its unit.

Consider the following illustrative entries.
COc1c(N2CCCC(CN)C2)c(F)cc2c(=O)c3c(O)c(C(N)=O)sc3n(C3CC3)c12 (stereo not shown); 0.5 µg/mL
COc1c(N2CCC[C@H]2C(N)=O)c(F)cc2c(=O)c3c(n(C4CC4)c12)SC(C#N)C3=O (stereo partly shown); 4 µg/mL
COc1c(N2CCNC(C(N)=O)C2)c(F)cc2c(=O)c3c(n(C4CC4)c12)SC(C#N)C3=O (stereo not shown); 0.25 µg/mL
COc1c(N2CC[C@@H](C(C)(C)N)C2)c(F)cc2c(=O)c3c(O)c(C(C)=O)sc3n(C3CC3)c12; 0.13 µg/mL
CCN[C@@H](C)[C@@H]1CCN(c2c(F)cc3c(=O)c4c(O)c(C#N)sc4n(C4CC4)c3c2OC)C1; 0.03 µg/mL

Here are 4 molecules. What values of MIC were reported for them?
1. COc1c(N2CC[C@@H](CN)C2)c(F)cc2c(=O)c3c(O)c(C#N)sc3n(C3CC3)c12
2. COc1c(N2CCC[C@H](N)C2)c(F)cc2c(=O)c3c(O)c(C#N)sc3n(C3CC3)c12
3. C[C@H]1COc2c(N3CCNCC3)c(F)cc3c(=O)c4c(n1c23)SC(C#N)C4=O (stereo partly shown)
4. COc1c(N2CC[C@@H]([C@H](C)NCCF)C2)c(F)cc2c(=O)c3c(O)c(C#N)sc3n(C3CC3)c12

[A]
1. 0.02 µg/mL
2. 0.13 µg/mL
3. 1 µg/mL
4. 0.02 µg/mL

Here are 7 molecules. What values of MIC were reported for them?
1. N#Cc1sc2c(c1O)c(=O)c1cc(F)c(N3CCNCC3)c(OC(F)F)c1n2C1CC1
2. COc1c(-c2cn[nH]c2)c(F)cc2c(=O)c3c(n(C4CC4)c12)SC(C#N)C3=O (stereo not shown)
3. COc1c(N2CC[C@@H](CN)C2)c(F)cc2c(=O)c3c(O)c(C(N)=O)sc3n(C3CC3)c12
4. COc1c(N2CC[C@@H](C(C)(C)N)C2)c(F)cc2c(=O)c3c(O)c(C(N)=O)sc3n(C3CC3)c12
5. N#CCN1CCN(c2c(F)cc3c(=O)c4c(O)c(C#N)sc4n(C4CC4)c3c2OC(F)F)CC1
6. N#Cc1sc2c(c1O)c(=O)c1ccc(N3CCNCC3)c(OC(F)F)c1n2C1CC1
7. CCC(=O)c1sc2c(c1O)c(=O)c1cc(F)c(N3CC[C@@H](C(C)(C)N)C3)c(OC)c1n2C1CC1

[A]
["0.25 µg/mL", "0.03 µg/mL", "0.13 µg/mL", "0.13 µg/mL", "0.13 µg/mL", "4 µg/mL", "0.5 µg/mL"]
